Test system: parent strain (SAWy518)
Listing of entries alongside the reported Offscreen_42hr.
The answer should be a number; do not append a unit.

Solved entries:
compound	Offscreen_42hr
Cc1ccc(S(=O)(=O)/C=C/C#N)cc1 [BAY 11-7082 (BAY 11-7821)]	0.9249
CC[N+](CC)(CC)CCOc1ccc(/C=C/c2ccccc2)cc1 [MG 624]	0.9127

Proceeding to the next compound to report its Offscreen_42hr.
Give the reported Offscreen_42hr for this compound. CCOC(=O)Oc1c(OC)cc(C(=O)O[C@@H]2C[C@@H]3CN4CCc5c([nH]c6cc(OC)ccc56)[C@H]4C[C@@H]3[C@H](C(=O)OC)[C@H]2OC)cc1OC [Syrosingopine]
0.9268
